These data points were gathered from PubChem BioAssay AID743279.

Please respond with reported activity change for every item in the list.
Procedure Details: qHTS for Inhibitors of Inflammasome Signaling: IL-1-beta AlphaLISA Primary Screen; note: % is set by controls: 0 for no effect and ±100 for the full control effect
Condition Details: THP-1 LPS/ATP IL-1B secretion, 16 h; at 57.5 µM, active compounds read low
Hit rate of the full screen: of about 360,000 compounds, about 17,000 (4.7%) were called active. About 5% were inconclusive and are not listed. The entries come from a sample that favours actives as a whole.
State just the number; it will be interpreted in %.

INPUT: Read the entry N#C/C(=C(\O)CCl)c1nnc2n1CCCCC2 and write its reported activity change.
OUTPUT: 4.27

INPUT: # return recorded activity change for entry O=C(COc1ccccc1Cl)Nn1cnnc1
OUTPUT: 26.3

INPUT: Provide activity change value for the following compound: CC1CN(C(=O)c2ccc([N+](=O)[O-])s2)CC(C)O1 (configuration not stated)
OUTPUT: 22.4

INPUT: Give the reported activity change for this compound. Cc1cn([C@H]2C[C@H](O)[C@@H](/C=C/C(=O)NCCCc3ccccc3)O2)c(=O)[nH]c1=O
OUTPUT: -16.4

INPUT: Please report activity change for the following compound: CCCNC(=O)c1cc(C2CCCCN2C(=O)OC)on1 (configuration not stated)
OUTPUT: 0

INPUT: Read the entry Cc1nn(-c2ccccc2)c(Cl)c1/C=C/C(=O)c1ccc(O)cc1 and write its reported activity change.
OUTPUT: -94.5

INPUT: Annotate the compound O=C(CC(CC(=O)c1ccccc1)c1ccco1)c1ccccc1 with its measured activity change.
OUTPUT: 13.9

INPUT: Supply reported activity change belonging to this compound: O=C1OCCN1C(=O)[C@H]1[C@H](c2ccc(F)cc2)C(c2ccccc2)=NN1c1ccc(Br)cc1
OUTPUT: -15.9

INPUT: Quickly give me recorded activity change for O=Nc1c(O)cc(O)c2ccccc12
OUTPUT: -2.52

INPUT: Note down activity change recorded for Oc1cccc(C2c3[nH]c4ccccc4c3CCN2Cc2cnn(-c3ccccc3)c2)c1 (configuration not stated)
OUTPUT: -64

INPUT: Provide activity change value for the following compound: Cc1cccc(C)c1NC(=O)C(c1cccc(F)c1)N1CCN(C)CC1 (configuration not stated)
OUTPUT: -18.5

INPUT: Complete the entry with activity change for COc1cccc(C2c3[nH]c4ccccc4c3CCN2Cc2cccc(C)n2)c1 (configuration not stated)
OUTPUT: -5.35

INPUT: Read the entry COc1ccc(C(=O)C2CCCN(Cc3ccc4nonc4c3)C2)c(C)c1 (configuration not stated) and write its reported activity change.
OUTPUT: -3.49

INPUT: Answer with the recorded activity change of C[C@@H]1C[C@@H]2O[C@H]2/C=C\C=C\C(=O)Cc2c(Cl)c(O)cc(O)c2C(=O)O1 only.
OUTPUT: -108

INPUT: Give recorded activity change. Cc1ccc(C(=O)N[C@H](C(=O)N2CCN(c3ncccn3)CC2)C(C)C)cc1
OUTPUT: -11.5

INPUT: Tell me activity change reported for COc1ccc(C2SCCN2S(=O)(=O)c2ccccc2)cc1OC (configuration not stated)
OUTPUT: -9.4

INPUT: Determine from records and report activity change for Cc1nn(-c2ccc(F)cc2)c(Cl)c1/C=C(/CCC(=O)O)c1nc2ccccc2s1
OUTPUT: 19.2

INPUT: Answer with the recorded activity change for the compound listed here: Cc1ccc(C(=O)/C=C/c2c(C)nn(-c3ccccc3)c2Cl)cc1
OUTPUT: -95

INPUT: Let me know recorded activity change for Cc1nn(-c2ccccc2)c(C)c1/C=C/C(=O)OC(C)C(N)=O (configuration not stated) , thanks.
OUTPUT: 9.76

INPUT: Look up and state reported activity change for Cc1nn(-c2ccccc2)c(-n2cccc2)c1C(=O)O
OUTPUT: 20.3

INPUT: Given C[C@@H]1C(c2ccc(F)cc2)=NN(c2ccc(Br)cc2)[C@H]1C(=O)N1CCOC1=O , respond with its activity change.
OUTPUT: -54.4

INPUT: Report measured activity change; entry is Cc1n[nH]c(=O)c2c(NC(=O)CSc3ccccc3F)oc(C)c12
OUTPUT: -0.579
